# protocolText: qHTS assay for small molecule disruptors of the mitochondrial membrane potential - cell viability (AID 720634);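 note: human HepG2 liver cancer cells; % is set by controls: 0 for no effect and ±100 for the full control effect; nearly all actives have a fitted effect of over 20% in size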
# setupConditions: HepG2 viability, ATP luminescence (CellTiter-Glo), 1 h; series mostly up to 83.2 µM
Results filed as inconclusive are left out. The source made the active and inactive calls. Calls come from the whole dose curve.
quantityMeasured: activity change, negative = cytotoxicity

compound	result
Cc1ccc2ccccc2n1	inactive
Cc1ccc(Br)cc1	inactive
CCOCCOCCOC(C)=O	inactive
NNC(=O)CCCCC(=O)NN	inactive
CCC(C)SSC(C)CC (centres undefined)	inactive

// recorded activity change, negative = cytotoxicity for CCCC(=O)CC : inactive

* * *

# protocolText: qHTS assay to identify small molecule agonists of the constitutive androstane receptor (CAR) signaling pathway - cell viability counter screen (AID 1224836); note: % is set by controls: 0 for no effect and ±100 for the full control effect; nearly all actives have a fitted effect of over 45% in size
# setupConditions: HepG2-CYP2B6-hCAR viability, CellTiter-Fluor, 23 h, PK11195 added to every well; series mostly up to 92.4 µM
Results filed as inconclusive are left out. Calls of active or inactive are those of the source. Calls come from the whole dose curve; as a rule, active = well fitted cell-killing curve with a large enough effect in the repeat runs; inconclusive = weak or mixed curves, or effect the other way; inactive = flat fitted curve, though single readings scatter.
quantityMeasured: viability change, negative = cytotoxic

# annotated cases, reported viability change, negative = cytotoxic shown
compound	viability change, negative = cytotoxic
N#Cc1ccccc1C#N	inactive
CCCOc1ccc(C(=O)OCCN(CC)CC)cc1N	inactive
NC[C@H]1O[C@H](O[C@H]2[C@H](O)[C@@H](O[C@H]3O[C@H](CO)[C@@H](O)[C@H](N)[C@H]3O)[C@H](N)C[C@@H]2N)[C@H](N)[C@@H](O)[C@@H]1O	-10.3% [at 19 µM] (inactive)
CC(=O)SC[C@@H](C)C(=O)N1CCC[C@H]1C(=O)N[C@@H](Cc1ccccc1)C(=O)O	inactive

Turning to the following compound.
// recorded viability change, negative = cytotoxic for O=C1CC2(CCCC2)CC(=O)N1CCNCC1COc2ccccc2O1 (stereo not given) : inactive

* * *

# experimentalSystem: Cytochrome P450 2C9 (Homo sapiens)
# protocolText: Cytochrome P450 Family 2 Subfamily C Member 9 (CYP2C9) small molecule antagonists: luciferase reporter qHTS assay (AID 1671198); note: nearly all actives have a fitted effect of over 50% in size
# setupConditions: P450-Glo CYP2C9 enzyme assay, luciferin luminescence; series mostly up to 115 µM
Records with an inconclusive call do not appear. Calls of active or inactive are those of the source. Calls follow the shape of the dose curve; as a rule, active = well fitted inhibition curve with a large enough effect in the repeat runs; inconclusive = weak or mixed curves; inactive = no such curve, though single readings can be large or run the other way.
Allowed answers: 1 (yes) = active, 0 (no) = inactive

For orientation, consider the following solved cases.
compound	experimentalSystem	group
O=c1[nH]c(=O)c2cn[nH]c2[nH]1	Cytochrome P450 2C9 (Homo sapiens)	0 (no)
OCCC(F)(F)C(F)(F)C(F)(F)C(F)(F)C(F)(F)C(F)(F)F	Cytochrome P450 2C9 (Homo sapiens)	0 (no)
Clc1cc(Cl)c(Cl)c(Cl)c1Cl	Cytochrome P450 2C9 (Homo sapiens)	0 (no)

(Q) // outcome(item) with item = Cc1cc(N)no1
(A) 0 (no)

(Q) // outcome(item) with item = CCOC(=O)COc1ccc2c(C)c(CCN(CC)CC)c(=O)oc2c1Cl
(A) 0 (no)

(Q) // outcome(item) with item = CCOC(=O)c1ccc(N(C)C)cc1
(A) 1 (yes)

(Q) // outcome(item) with item = COC(=O)C(c1ccccc1Cl)N1CCc2sccc2C1 (stereo unspecified)
(A) 1 (yes)

(Q) // outcome(item) with item = CCCCCCCOC(C)=O
(A) 0 (no)

* * *

# protocolText: qHTS assay to test for compound auto fluorescence at 590 nm (red) in HEK293 cells (AID 720679); note: % is set by controls: 0 for no effect and ±100 for the full control effect
# setupConditions: red autofluorescence 540/590 nm; series mostly up to 91.3 µM
Active and inactive are the calls of the source. The call rests on the fitted dose curve; in most records, active means well fitted curve in the direction sought with a large enough effect in the repeat runs; inconclusive means weak or mixed curves; inactive means flat fitted curve, though single readings scatter.
quantityMeasured: fluorescence, % of fluorescent control

# annotated cases, reported fluorescence, % of fluorescent control shown
compound	quantityMeasured	result
CC(O)C(CO)C(C)O (stereo unspecified)	fluorescence, % of fluorescent control	inactive
NCC1CCC(C(=O)Oc2ccc(CCC(=O)O)cc2)CC1 (stereo unspecified)	fluorescence, % of fluorescent control	inactive
CCCCC(CC)COC(=O)CC#N (stereo unspecified)	fluorescence, % of fluorescent control	inactive
C=CCCCCCCCCOC(C)=O	fluorescence, % of fluorescent control	inactive
CC(=O)c1c(C)cc(C(C)(C)C)cc1C	fluorescence, % of fluorescent control	inactive

// recorded fluorescence, % of fluorescent control for Cc1ccc(NC(N)=O)cc1 : inactive

// recorded fluorescence, % of fluorescent control for O=C(O)CCC(=O)Nc1ccc(S(=O)(=O)Nc2nccs2)cc1 : -0.0693% [at 18.6 µM] (inactive)

// recorded fluorescence, % of fluorescent control for Cc1ccc(OC(=O)CC(C)C)cc1 : inactive

// recorded fluorescence, % of fluorescent control for NS(=O)(=O)c1cc2c(cc1C(F)(F)F)NCNS2(=O)=O : -0.333% [at 18.6 µM] (inactive)

// recorded fluorescence, % of fluorescent control for COc1cc(NS(=O)(=O)c2ccc(N)cc2)ncn1 : 0.185% [at 18.6 µM] (inactive)

// recorded fluorescence, % of fluorescent control for O=C(CCBr)N1CCN(C(=O)CCBr)CC1 : inactive
